Reported values of OD450 at 0.01 nM for individual entries
Experimental target: T1, human MSLN-R3-3 polypeptide (human)
T1 construct: also called human MSLN-R3-3 protein; hMSLN-R3-3
Measurement notes: ELISA, coated MSLN-R3-3;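 note: chimeric antibodies in serial dilution bound to plate-coated antigen for 2 h at 37 °C, with a negative control antibody alongside, and TMB colour development stopped with HCl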
Value and unit, in that order.

Some solved entries appear below for comparison.
[
  {
    "Binder": "S009-F1.25.10 (antibody, human IgG1, kappa, V domains shown, Human-murine chimeric antibody, human IgG1/kappa constant regions) VH: EVQLQQSGPELVKPGASLKISCKASGYSFTDYTMNWVKQSHGKNLEWIGLFNPYNGGISYNQKFKGKATLTVDKSSNTAYMELLSLTSDDSAVYFCARDGRGGFYAMDYWGQGTSVTVSS VL: DIQMTQTTSSLSASLGDRVTISCRASQDISIYLNWYQQKPDGPVKLLIYYTSRLHSGVPSRFSGSGSGTDFSLTISNLEQEDIATYFCQQGYTLPPWTFGGGTKLEIKR",
    "OD450 at 0.01 nM": "0.59 OD450"
  },
  {
    "Binder": "S009-F1.59.1 (antibody, human IgG1, kappa, V domains shown, Human-murine chimeric antibody, human IgG1/kappa constant regions) VH: EVKLEGSGGGLVQPGGSMMLSCVATGFTFSSYWMNWVRQSPDRGLEWVAEIRLKSNGFAAFYAESVKGRFTISRDDSKSSVYLQMNNLRTEDTGIYYCTYFVHWGQGILVTVSE VL: DIVLTQSPTSLAVSLGQRATISCRTSESVEYFGTILIQWYQQKPGQPPKLLIFGASNVESGVPARFSGSGSGTDFSLNIHPVEEEDIAMYFCQQNRKVPYTFGGGTTLELKR",
    "OD450 at 0.01 nM": "0.06 OD450"
  }
]

Next up:
input: // query OD450 at 0.01 nM value for entry S009-F1.57.1 (antibody, human IgG1, kappa, V domains shown, Human-murine chimeric antibody, human IgG1/kappa constant regions) VH: EAQLQQSGAVFVKPGASVKLSCTASGFSSKDIFLHWVKQRPEQGLEWIGRIDPASDNTIYDPKFQDRATITSDRSSNTAYLQFSSLTSEDTAVYFCLYFDFWGQGTTLTVSS VL: DIVMTQATPSISVTPGESVSISCRSSESLLHSNGNTYLYWFLQRPGQSPQLLIYRMSNLASGVPDRFSVSGSGTAFTLRISRVEAEDVGVYYCMQHLEYPLTFGAGTKLELKR
output: 0.07 OD450

meta.source: patent US20250250357A1
